Source listed as patent US20250197467A1.

Molecular target: T1, IL-18 receptor (IL-18Rαβ) on cells (UniProt Q13478 19-541; O95256 20-599, limits assumed)
T1 sequence (looked up) 1: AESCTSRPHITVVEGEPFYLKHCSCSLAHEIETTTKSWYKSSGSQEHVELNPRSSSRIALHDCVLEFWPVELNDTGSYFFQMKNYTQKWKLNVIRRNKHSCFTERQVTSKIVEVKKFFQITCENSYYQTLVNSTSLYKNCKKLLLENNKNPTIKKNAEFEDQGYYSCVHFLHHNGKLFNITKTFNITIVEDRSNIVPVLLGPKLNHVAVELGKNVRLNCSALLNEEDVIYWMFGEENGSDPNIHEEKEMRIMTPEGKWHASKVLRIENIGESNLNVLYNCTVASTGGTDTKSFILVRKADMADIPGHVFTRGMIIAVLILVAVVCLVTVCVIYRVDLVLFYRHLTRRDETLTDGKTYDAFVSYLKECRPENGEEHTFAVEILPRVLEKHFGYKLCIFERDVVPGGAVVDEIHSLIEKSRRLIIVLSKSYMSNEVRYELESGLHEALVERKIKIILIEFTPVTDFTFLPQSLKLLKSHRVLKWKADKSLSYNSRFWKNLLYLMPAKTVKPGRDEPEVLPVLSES
T1 sequence (looked up) 2: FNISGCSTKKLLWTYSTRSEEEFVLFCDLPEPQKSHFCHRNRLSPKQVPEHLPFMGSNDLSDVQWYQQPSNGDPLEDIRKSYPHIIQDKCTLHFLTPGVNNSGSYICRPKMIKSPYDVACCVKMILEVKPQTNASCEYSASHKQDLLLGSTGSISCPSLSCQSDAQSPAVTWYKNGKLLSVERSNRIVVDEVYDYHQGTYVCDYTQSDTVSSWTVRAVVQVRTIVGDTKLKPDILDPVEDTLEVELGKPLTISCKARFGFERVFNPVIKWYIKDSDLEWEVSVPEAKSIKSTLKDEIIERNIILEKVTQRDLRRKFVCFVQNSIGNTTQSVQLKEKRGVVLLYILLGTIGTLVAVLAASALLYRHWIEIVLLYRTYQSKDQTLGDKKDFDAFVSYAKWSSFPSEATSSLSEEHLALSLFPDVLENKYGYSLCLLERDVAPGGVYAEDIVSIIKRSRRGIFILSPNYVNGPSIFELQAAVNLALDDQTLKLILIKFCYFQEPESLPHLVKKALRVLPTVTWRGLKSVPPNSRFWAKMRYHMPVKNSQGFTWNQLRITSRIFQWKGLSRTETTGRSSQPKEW
Assay: cell-based or functional assay
Give Hek Blue reporter assay EC50 for every item shown.
One number for each entry, in pM.

C191 (ligand) YFGKLKSKLSIIRNLNDQVLFIDQGNRPLFEDMTDSDARDNAPRTIFIISMYADSQPRGMAVAISVKCEKISTLSAENKIISFKEMNPPDNIKDTKSDIIFFQRSVPGHDNKMQFESSSYEGYFLAAEKERDLFKLILKKEDELGDRSIMFTVQNESGGPLGLAGGSNIVPVLLGPKLNHVAVELGKNVRLNCSALLNEEDVIYWMFGEENGSDPNIHEEKEMRIMTPEGKWHASKVLRIENIGESNLNVLYNCTVASTGGTDTKSFILVRKADHHHHHH	2.02
C127 (ligand) MAAEPVEDNCINFVAMKFIDNTLYFIAEDDENLESDSGGPGPAGMKGLPGSYFGKLKSKLSIIRNLNDQVLFIDQGNRPLFEDMTDSDARDNAPRTIFIISMYADSQPRGMAVAISVKCEKISTLSAENKIISFKEMNPPDNIKDTKSDIIFFQRSVPGHDNKMQFESSSYEGYFLAAEKERDLFKLILKKEDELGDRSIMFTVQNED	295

Proceeding to the next binder to report its Hek Blue reporter assay EC50.
Q: For the binder C086 (SEQ ID NO: 30) (ligand) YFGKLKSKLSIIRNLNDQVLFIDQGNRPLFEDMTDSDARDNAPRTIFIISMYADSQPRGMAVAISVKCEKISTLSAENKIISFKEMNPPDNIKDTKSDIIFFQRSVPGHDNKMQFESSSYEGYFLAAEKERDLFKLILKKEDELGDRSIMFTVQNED , what Hek Blue reporter assay EC50 is on record?
Ans: 0.057
